Test: Cytotoxicity against human MT2 cells after 5 days
Type: cell-based
Consider the following compounds; for each one, report its CC50 at 120 h.

* C#C[C@@]1(OCP(=O)(O)O)C=C[C@H](n2cnc3c(N)ncnc32)C1 | 1450 µM
* Nc1ncnc2c1ncn2[C@H]1C=C[C@@H](OCP(=O)(O)O)O1 | > 1000 µM
* Cc1cn([C@H]2C[C@H](N=[N+]=[N-])[C@@H](CO)O2)c(=O)[nH]c1=O [ZIDOVUDINE] | > 200 µM
* Nc1ncnc2c1ncn2[C@@H]1O[C@H](OCP(=O)(O)O)C=C1F [GS-9148] | > 1000 µM

Lab note: next compound to report on.
Q: Looking for the measured CC50 at 120 h of C[C@H](Cn1cnc2c(N)ncnc21)OCP(=O)(O)O [TENOFOVIR ANHYDROUS] , can you help?
Ans: > 1000 µM

* * *

Consider the following compounds; for each one, report its pIC50.
Biological target: Human immunodeficiency virus type 1 reverse transcriptase (Human immunodeficiency virus 1, UniProt Q72547)
One number for each entry, as −log10 of the molar value.

Below: 2 compounds and their reported pIC50.
• C=C[C@@]1(OCP(=O)(O)OP(=O)(O)OP(=O)(O)O)C=C[C@H](n2cnc3c(N)ncnc32)C1 = 6.21
• Nc1nc(NC2CC2)c2ncn([C@H]3C=C[C@@H](CO)C3)c2n1 = 6.89

Lab note: next compound to report on.
Q: Looking for the measured pIC50 of `C#C[C@@]1(OCP(=O)(O)O)C=C[C@H](n2cnc3c(N)ncnc32)C1` , can you help?
Ans: 6.89

* * *

Test system: Human immunodeficiency virus 1
Test: Antiviral activity against HIV1 3a with reverse transcriptase K65R mutation in human MT2 cells assessed as inhibition of viral-induced cytopathic effect by XTT assay relative to wild type
Type: functional
Kind request: treat 3 as inclusive, so fold change (FC) at 3 or higher is true, anything lower is false.

* Nc1ncnc2c1ncn2[C@H]1C=C[C@@H](OCP(=O)(O)O)O1 | false
* Nc1ncnc2c1ncn2[C@@H]1O[C@H](OCP(=O)(O)O)C=C1F | false
* Cc1cn([C@H]2C[C@H](N=[N+]=[N-])[C@@H](CO)O2)c(=O)[nH]c1=O | false
* C[C@H](Cn1cnc2c(N)ncnc21)OCP(=O)(O)O [TENOFOVIR ANHYDROUS] | true
* C#C[C@@]1(OCP(=O)(O)O)C=C[C@H](n2cnc3c(N)ncnc32)C1 | false

Q: Does `Nc1nc(NC2CC2)c2ncn([C@H]3C=C[C@@H](CO)C3)c2n1` have a reported fold change (FC) of at least 3?
Ans: true
